System: NCI-H522 lung
assay.comment: NCI-60 one-dose screen, 48 h
applied.conditions: 10 µM
This is part of a sample that, as a whole, favours compounds with a hit. Of some 83,000 tested, about 20% had one in any assay. Calls of active or inactive are those of the source. The calls were made as follows: active = growth percent below 10; inactive = the rest.
Labels: y for active, n for inactive

{"compound": "N#Cc1c(N)nc(Nc2nc3ccccc3[nH]2)nc1-c1ccc(Cl)cc1", "group": "n"}
{"compound": "O=C(Nc1ccccc1)Nc1ccc(Nc2ncnc3sc4c(c23)CCCC4)cc1", "group": "n"}
{"compound": "COc1cc2ncnc(Nc3ccc4c(cnn4C(=O)Nc4ccccc4)c3)c2cc1OC", "group": "n"}
{"compound": "Cc1cc2c(-c3nc4ccccc4[nH]3)c(O)c(O)cc2c(O)c1-c1c(C)cc2c(-c3nc4ccccc4[nH]3)c(O)c(O)cc2c1O", "group": "y"}
{"compound": "O=C(Cc1ccccc1[N+](=O)[O-])c1ccc2c(c1)OCO2", "group": "n"}
{"compound": "COc1cc2cc3cc4cc(OC)c(OC)cc4c(C)[n+]3cc2cc1OC (tested in a mixture with another compound)", "group": "n"}
{"compound": "CCOC(=O)c1c(C)oc2ncnc(Nc3ccc(C(=O)NCCc4ccccc4)cc3)c12", "group": "n"}
{"compound": "Oc1ccc([S+](c2ccc(O)cc2)c2ccc(O)cc2)cc1", "group": "n"}
{"compound": "COc1ccc(Cn2cc3c(c2)-c2oncc2CC3)cc1OC", "group": "n"}
{"compound": "CC(=O)NNC(=O)c1sc(NC(C)=O)nc1C", "group": "n"}
